assay: amyloid nucleation score (Sup35N fusion, yeast selection) (log enrichment); library NNK2; higher = more nucleation; inactive = no reads after selection;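 also: zero at mode of non-aggregating sequences after 7 days selection at 30°C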
Category key, based on recorded amyloid nucleation score: A = under 0.001, B = from 0.001 up to 1, C = 1 and over

[Q] Note: place this substance into its band. Item: `HDGICSNSGVVSINKNGNYD`
[A] C

Further cases:
[Q] Which category fits this record: `YFLALAYRAVPLLWYRPRGL`
[A] B

[Q] Which class is correct for the following substance? `MVRDIEFTLKGRTMG`
[A] A

[Q] Tag the class for `KYDGAFQRGGIIQISYLCLW`
[A] C

[Q] Input `DFVDGVPL` ; output its category
[A] B

[Q] Determine which band this substance sits in: `APFLGRLEVRV`
[A] B

[Q] Given `LVNTYYAHVWWLLVGIMMLS` , name the class its amyloid nucleation score places it in.
[A] A

[Q] Hi, small favor: classify `RCLPISTIVF` by its amyloid nucleation score when you get a moment.
[A] C

[Q] Field: class (amyloid nucleation score) — entry: `GCLPHGY`
[A] B

[Q] Which category does the recorded amyloid nucleation score put `VLFSRTTSEEDKRSIISMNN` in?
[A] C

###

assay: amyloid nucleation score (Sup35N fusion, yeast selection) (log enrichment); library NNK3; higher = more nucleation; inactive = no reads after selection
outcomeMeasure: amyloid nucleation score

A selection of reference data follows.
[Q] Provide one value: measured amyloid nucleation score of `NPLFMQSLKLRCCRNLRFRS`
[A] inactive

[Q] Respond only with amyloid nucleation score recorded for `NNTNAQKLLINV`
[A] inactive

[Q] For `GHSEYLA` , write its amyloid nucleation score.
[A] inactive

[Q] Output amyloid nucleation score of `SVLLHLNRNVMWTMPSRGAF`
[A] inactive

[Q] Give the reported value of amyloid nucleation score for this record: `FGGLRTATL`
[A] inactive

[Q] Could you please provide reported amyloid nucleation score for `IDRHAPSEESVPFWSYWNNG` ? Thanks!
[A] inactive

More entries:
[Q] Read off the recorded amyloid nucleation score for `LASFEIRNREY`
[A] 0.519

[Q] Please give the documented amyloid nucleation score of `GYGVCNNDKCVQDAPGQPVS`
[A] -0.357

###

assay: amyloid nucleation score (Sup35N fusion, yeast selection) (log enrichment); library NNK1; higher = more nucleation; inactive = no reads after selection
Short version: amyloid nucleation score at least 0.001 is label 1, less is label 0.

# count of solved cases: 8
[Q] Check the entry `FGMKMGMMRVV` : does amyloid nucleation score equal or exceed 0.001?
[A] label 0

[Q] Quick check: does `QDTRTLQGCRQWQRWITAEG` have amyloid nucleation score greater than or equal to 0.001?
[A] label 1

[Q] Say whether `NVDSRFD` shows amyloid nucleation score of 0.001 or more.
[A] label 0

[Q] Please tell me: is the substance `WVCFIFIIFETVS` at or over 0.001 in terms of amyloid nucleation score?
[A] label 0

[Q] Can `GDSRTLGLLCFYMKVG` be said to have amyloid nucleation score at or above 0.001?
[A] label 0

[Q] # check: amyloid nucleation score of `KGCCLCLISMSVTNRLVEPR` is greater than or equal to 0.001
[A] label 1

[Q] Test whether the substance `VSVSRGRTFSFSIGSYRIGR` records amyloid nucleation score of 0.001 or higher.
[A] label 1

[Q] Record `CRLSTS` ; criterion: amyloid nucleation score no lower than 0.001. Met?
[A] label 0

---
[Q] Say whether `LDGGIIRRILVIVKCWGRCC` shows amyloid nucleation score of 0.001 or more.
[A] label 1

[Q] amyloid nucleation score >= 0.001 for `GYLLAERDLNIATARGSLLR` ?
[A] label 0

[Q] I'd appreciate it if you could say whether `MNIVIHIPNMRMAAKD` has amyloid nucleation score at least equal to 0.001.
[A] label 1

[Q] # check: amyloid nucleation score of `LALLWDMPF` is greater than or equal to 0.001
[A] label 0

[Q] Given `VQYNLTCNYY` , state whether its amyloid nucleation score is at least 0.001.
[A] label 1

[Q] Please indicate if the recorded amyloid nucleation score for `RARWDPFLMCYLTVVWTSFV` meets or exceeds 0.001.
[A] label 0

[Q] Evaluate `KEIIEMWSTFTYNQIWCDWI` : amyloid nucleation score at minimum 0.001?
[A] label 0

[Q] Is the recorded value of amyloid nucleation score equal to or greater than 0.001 for this substance? `CCVGWCFPACLLFST`
[A] label 1
